Data provenance: ChEMBL document CHEMBL3875206

- SYSTEM_TESTED: Amyloid-beta precursor protein (Homo sapiens) (UniProt P05067)
- Sequence (P05067 whole entry): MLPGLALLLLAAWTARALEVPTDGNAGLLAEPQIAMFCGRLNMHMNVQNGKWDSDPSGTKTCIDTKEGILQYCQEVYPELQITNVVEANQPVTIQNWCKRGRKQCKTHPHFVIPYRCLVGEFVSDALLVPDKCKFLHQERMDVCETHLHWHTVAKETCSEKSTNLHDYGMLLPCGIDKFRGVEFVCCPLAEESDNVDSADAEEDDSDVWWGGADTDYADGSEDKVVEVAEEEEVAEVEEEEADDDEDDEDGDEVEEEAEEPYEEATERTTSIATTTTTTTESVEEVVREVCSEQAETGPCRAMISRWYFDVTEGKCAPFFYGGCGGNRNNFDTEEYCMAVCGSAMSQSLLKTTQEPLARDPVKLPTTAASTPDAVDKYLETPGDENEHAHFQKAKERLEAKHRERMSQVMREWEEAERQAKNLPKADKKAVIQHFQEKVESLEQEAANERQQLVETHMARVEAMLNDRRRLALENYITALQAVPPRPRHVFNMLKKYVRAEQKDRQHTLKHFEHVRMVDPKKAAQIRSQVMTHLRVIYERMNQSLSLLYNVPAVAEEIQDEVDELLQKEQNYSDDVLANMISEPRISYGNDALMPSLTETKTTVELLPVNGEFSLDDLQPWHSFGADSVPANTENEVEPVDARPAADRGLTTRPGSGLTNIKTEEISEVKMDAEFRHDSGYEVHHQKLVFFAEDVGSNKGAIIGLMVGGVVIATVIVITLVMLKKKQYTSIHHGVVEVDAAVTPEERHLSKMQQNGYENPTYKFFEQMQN
- EXPERIMENTAL_PROTOCOL: Inhibition of self-induced aggregation of amyloid beta (1-42) (unknown origin) at 25 uM after 24 hrs by thioflavin T fluorescence-based fluorimetric method relative to control
# inhibition per record follows
State the answer as a number, implicitly in %.

// worked examples, inhibition included
> print(dat)
                                     smiles                             system.tested  measured.property  result.units  experimental.result
1  CCN(CC)C(=O)Oc1ccc(C(=O)/C=C/c2ccc(N(C)C)cc2)c(O)c1  Amyloid-beta precursor protein (Homo sapiens) (UniProt P05067)         inhibition             %                 76.7
2     CN(C)c1ccc(/C=C/C(=O)c2ccc(O)cc2O)cc1  Amyloid-beta precursor protein (Homo sapiens) (UniProt P05067)         inhibition             %                 77.7
3  CN(C)c1ccc(/C=C/C(=O)c2ccc(OC(=O)N3CCCC3)cc2OC(=O)N2CCCC2)cc1  Amyloid-beta precursor protein (Homo sapiens) (UniProt P05067)         inhibition             %                   48
4  O=C(/C=C/c1ccc(N2CCCC2)cc1)c1ccc(OC(=O)N2CCCC2)cc1O  Amyloid-beta precursor protein (Homo sapiens) (UniProt P05067)         inhibition             %                 44.4
5  CN(C)c1ccc(/C=C/C(=O)c2ccc(OC(=O)N3CCCCC3)cc2O)cc1  Amyloid-beta precursor protein (Homo sapiens) (UniProt P05067)         inhibition             %                 70.2

What value of inhibition has been recorded for this entry: O=C(/C=C/c1ccc(N2CCCCC2)cc1)c1ccc(OC(=O)N2CCCC2)cc1O
57.2

What value of inhibition has been recorded for this entry: CCN(C)C(=O)Oc1ccc(C(=O)/C=C/c2ccc(N(C)C)cc2)c(O)c1
98

What value of inhibition has been recorded for this entry: CN(C)C(=O)Oc1ccc(C(=O)/C=C/c2ccc(N(C)C)cc2)c(O)c1
90.8

What value of inhibition has been recorded for this entry: CN(C)c1ccc(/C=C/C(=O)c2ccc(OC(=O)N3CCN(Cc4ccccc4)CC3)cc2O)cc1
89.4

What value of inhibition has been recorded for this entry: CN1CCN(C(=O)Oc2ccc(C(=O)/C=C/c3ccc(N(C)C)cc3)c(O)c2)CC1
87.9

What value of inhibition has been recorded for this entry: CN(C)C(=O)Oc1ccc(C(=O)/C=C/c2ccc(N(C)C)cc2)c(OC(=O)N(C)C)c1
34.7

What value of inhibition has been recorded for this entry: O=C(/C=C/c1ccc(N2CCOCC2)cc1)c1ccc(OC(=O)N2CCCC2)cc1O
44.4

====

# Ratio IC50 per record follows
- Species on record: Homo sapiens
- EXPERIMENTAL_PROTOCOL: Selectivity index, ratio of IC50 for recombinant human MAO-A expressed in baculovirus infected High 5 insect cells to IC50 for recombinant human MAO-B expressed in baculovirus infected High 5 insect cells
Enter a number only.

> print(dat)
                                     smiles  experimental.result
1  CN(C)C(=O)Oc1ccc(C(=O)/C=C/c2ccc(N(C)C)cc2)c(O)c1                 4.11

Proceeding to the next molecule to report its Ratio IC50.
What value of Ratio IC50 has been recorded for this entry: CN(C)c1ccc(/C=C/C(=O)c2ccc(O)cc2O)cc1
13.4
